Recorded Ki, one value per entry.
Target: Prolactin-releasing peptide receptor (Homo sapiens)
Sequence (P49683 whole entry): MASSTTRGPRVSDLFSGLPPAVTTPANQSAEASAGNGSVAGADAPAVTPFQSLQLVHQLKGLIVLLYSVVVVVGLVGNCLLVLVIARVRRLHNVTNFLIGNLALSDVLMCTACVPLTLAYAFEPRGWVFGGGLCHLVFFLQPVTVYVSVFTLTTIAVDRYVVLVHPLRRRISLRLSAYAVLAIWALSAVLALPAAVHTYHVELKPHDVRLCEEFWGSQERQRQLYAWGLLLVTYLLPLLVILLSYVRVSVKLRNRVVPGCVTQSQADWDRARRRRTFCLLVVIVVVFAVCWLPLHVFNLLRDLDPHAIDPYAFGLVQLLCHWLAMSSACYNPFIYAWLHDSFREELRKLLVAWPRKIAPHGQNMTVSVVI
Readout Label: Ki (nM)

CC[C@H](Nc1nc2c(c(=O)n1OC)CN(C(=O)c1ccc(C#N)cc1F)CC2)c1ccc(C(F)(F)F)cc1	8
CCOn1c(N[C@@H](C)c2ccc(C(F)(F)F)cc2)nc2c(c1=O)CN(C(=O)c1ccc(-c3cnco3)cc1)CC2	20
C[C@H](Nc1nc2c(c(=O)n1N1CCCC1)CN(C(=O)c1ccc(C#N)cc1F)CC2)c1ccc(C(F)(F)F)cc1	6
COn1c(N[C@@H](C)c2ccc(C(F)(F)F)cc2)nc2c(c1=O)CN(C(=O)c1cc3ccccc3s1)CC2	15
COn1c(NC(C)c2ccc(Cl)cc2)nc2c(c1=O)CN(C(=O)COc1ccc(Cl)cc1)CC2 (single isomer, unassigned)	15

###

Target: Prolactin-releasing peptide receptor (Homo sapiens, UniProt P49683)
Sequence (P49683 whole entry): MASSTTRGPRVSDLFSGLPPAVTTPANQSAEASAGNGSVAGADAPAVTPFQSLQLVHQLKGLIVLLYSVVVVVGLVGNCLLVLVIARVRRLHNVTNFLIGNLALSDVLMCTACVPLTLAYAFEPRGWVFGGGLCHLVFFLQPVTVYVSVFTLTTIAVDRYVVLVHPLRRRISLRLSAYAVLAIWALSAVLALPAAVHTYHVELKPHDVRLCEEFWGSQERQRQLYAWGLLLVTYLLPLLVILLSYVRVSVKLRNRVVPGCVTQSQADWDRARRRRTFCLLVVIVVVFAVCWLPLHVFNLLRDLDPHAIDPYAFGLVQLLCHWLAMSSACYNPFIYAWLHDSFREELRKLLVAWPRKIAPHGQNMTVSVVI
Below, each entry is listed with its recorded Ki.
Readout Label: Ki (µM)

COn1c(N[C@@H](C)c2ccc(C(F)(F)F)cc2)nc2c(c1=O)CN(C(=O)c1ccc3c(c1)OCCO3)CC2	0.01
CCOn1c(N[C@@H](C)c2ccc(C(F)(F)F)cc2)nc2c(c1=O)CN(C(=O)c1cc3cccnc3s1)CC2	0.017
C[C@H](Nc1nc2c(c(=O)n1N1CCCC1)CN(C(=O)c1ccc(C#N)cc1)CC2)c1ccc(C(F)(F)F)cc1	0.01
COn1c(N[C@@H](C)c2ccc(C(F)(F)F)cc2)nc2c(c1=O)CN(C(=O)COc1ccc(Cl)cc1)CC2	0.008
